assay_method_text: Cytotoxicity against HUVEC assessed as cell viability after 24 hrs by MTT assay relative to control
Assay type: cell-based
Design: concentration or dose not given beside the values
assay_conditions: human, HUVEC cells; read-out: Activity
# viability at 24 h annotations
The response must be a number in % with no trailing unit.

Please review the following examples before continuing.
compound | endpoint_result
CCOC(=O)C1ON(c2ccccc2)C(c2cccc(C)c2)C12C(=O)Nc1ccc(F)cc12 (stereo unspecified) | 98
CCOC(=O)C1ON(c2ccccc2)C(c2ccc(Cl)cc2)C12C(=O)Nc1ccccc12 (stereo unspecified) | 96
CCOC(=O)C1ON(c2ccccc2)C(c2ccc(F)cc2)C12C(=O)Nc1ccccc12 (stereo unspecified) | 96
CCOC(=O)C1ON(c2ccccc2)C(c2ccc(F)c(F)c2)C12C(=O)Nc1ccc(F)cc12 (stereo unspecified) | 95
CCOC(=O)C1C(c2cccc(Br)c2)N(c2ccccc2)OC12C(=O)Nc1ccccc12 (stereo unspecified) | 95
CCOC(=O)C1C(c2cccc([N+](=O)[O-])c2)N(c2ccccc2)OC12C(=O)Nc1ccccc12 (stereo unspecified) | 98
CCOC(=O)C1ON(c2ccccc2)C(c2cccc(OC)c2OC)C12C(=O)Nc1ccc(F)cc12 (stereo unspecified) | 98
CCOC(=O)C1ON(c2ccccc2)C(c2ccc([N+](=O)[O-])cc2)C12C(=O)Nc1ccc(F)cc12 (stereo unspecified) | 97

Param item = CCOC(=O)C1ON(c2ccccc2)C(c2ccc(Cl)cc2)C12C(=O)Nc1ccc(F)cc12 (stereo unspecified) ; retrieve measured viability at 24 h. 96

Could you share which viability at 24 h value was measured for CCOC(=O)C1ON(c2ccccc2)C(c2ccc(OCC)cc2)C12C(=O)Nc1ccc(F)cc12 (stereo unspecified) ? 97

Entry CCOC(=O)C1ON(c2ccccc2)C(c2cccc(F)c2)C12C(=O)Nc1ccccc12 (stereo unspecified) : reported viability at 24 h = ? 98
